Give EC50 for every item shown.
Target: LHRH binding sites on EFO-27 human ovarian cancer cells (human)
Assay: competition with [125I-Tyr8]BRU-2477 on EFO-27 cells
Non-standard residues stand in square brackets, D forms with d. Primed or numbered codes have the meaning given here. DO3A10CM″ = chelating group at the N-terminus (X in the sequence tables); Bpa = N[C@@H](Cc1ccc(C(=O)c2ccccc2)cc1)C(=O)O; d2Nal = N[C@H](Cc1ccc2ccccc2c1)C(=O)O; DO3A10CM = not defined here; Bpa4 = non-natural residue; Bugly = not defined here; Hypt4 = not defined here; Tha = not defined here; azaGly = NNC(=O)O; Sar = CNCC(=O)O
Give bare numbers, in nM.

[[record]]
binder = "XRWSHXWXPX (DO3A10CM on N-terminus; AA1 Apsp; AA6 Darg; AA8 Bpa4; AA10 azaGly-NH2) [BRU-3056]"
number = 440


Hi, could you look up EC50 for each item in my list?
1. DO3A10CM-[d2Nal]RWSH[dR]W[Bpa4][Hypt4][azaGly]-NH2 (reading uncertain) [BRU-2952]
2. XHWSHXWXPX (DO3A10CM on N-terminus; AA1 Sar; AA6 Darg; AA8 Tbufe4; AA10 azaGly-NH2) [BRU-2634]
3. XRWSHXWXP (not fully specified; DO3A10CM on N-terminus; AA1 Dnal2; AA6 Darg; AA8 Bpa4; AA10 A1guao3pt) [BRU-2985]

*A*
280
980
460

Hi, could you look up EC50 for each item in my list?
1. XHWSHXWXPX (DO3A10CM on N-terminus; AA1 Nal2; AA6 Darg; AA8 Bpa4; AA10 azaGly-NH2) [BRU-2809]
2. XRWSHXWXXX (DO3A10CM on N-terminus; AA1 Dnal2; AA6 Darg; AA8 Bpa4; AA9 Aze; AA10 azaGly-NH2) [BRU-2993]
3. DO3A10CM-G[Bugly]HWSH[dR]W[Bpa]P[azaGly]-NH2 (reading uncertain) [BRU-2791]

*A*
[3540, 380, 4030]

Hi, could you look up EC50 for each item in my list?
1. XHWSHXWXPX (DO3A10CM on N-terminus; AA1 Sar; AA6 Darg; AA8 F5fe; AA10 azaGly-NH2) [BRU-2722]
2. {DO3A10CM″}-[Sar][His(pime)]WS[Tha][dR]W[Bpa]P[azaGly]-NH2 (reading uncertain) [BRU-2739]
3. GXRWSHXWXPX (DO3A10CM-Gly (linker) on N-terminus; AA1 Tic; AA6 Darg; AA8 Bpa4; AA10 azaGly-NH2) [BRU-3052]
4. DO3A10CM-[d2Nal]RWSH[dR]W[Bpa]PGF-NH2 (reading uncertain) [BRU-2980]
5. XHWSHXWXPX (DO3A10CM on N-terminus; AA1 Sar; AA6 Darg; AA8 Cha; AA10 azaGly-NH2) [BRU-2718]
6. XRWSHXWXPX (DO3A10CM on N-terminus; AA1 Cafe4; AA6 Darg; AA8 Bpa4; AA10 azaGly-NH2) [BRU-3092]
7. XHWSHXWYPX (HELM PEPTIDE1{[Glp].H.W.S.H.[dK].W.Y.P.[O=C(NN[*:1])[*:2]].[am]}$$$$V2.0; SMILES NCCCC[C@@H](NC(=O)[C@H](Cc1c[nH]cn1)NC(=O)[C@H](CO)NC(=O)[C@H](Cc1c[nH]c2ccccc12)NC(=O)[C@H](Cc1c[nH]cn1)NC(=O)[C@@H]1CCC(=O)N1)C(=O)N[C@@H](Cc1c[nH]c2ccccc12)C(=O)N[C@@H](Cc1ccc(O)cc1)C(=O)N1CCC[C@H]1C(=O)NNC(N)=O) [BRU-2437]

*A*
[4620, 5280, 550, 970, 630, 2000, 8540]
